Value source: PubChem BioAssay AID1963449

- Tested on: 596521-263-R-J1-PDC complex spheroid growth;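 note: spheroids exposed to compounds for 7 days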
- Test protocol: Anticancer human tumor 596521-263-R-J1-PDC patient-derived soft tissue sarcoma cell line growth inhibition [Asc]
- Assay setup: second compound 3.16 µM; first compound 10 µM; hits give low values
Can you tell me viability, T/C for the items I'm about to list?
Answers are plain numbers, in %.

Example entries and their recorded answers appear below.
C=C(F)C(=O)N1CCN(c2nc(OCC3CCCN3C)nc3c2CCN(c2cccc4cccc(Cl)c24)C3)CC1CC#N (centres undefined) + Cc1c(S(C)(=O)=O)c(-c2cc(F)cc(N3CCN(c4ccc(NS(=O)(=O)c5ccc(NC(CCN6CCC(C(=O)OCCCP(=O)(O)O)CC6)CSc6ccccc6)c(S(=O)(=O)C(F)(F)F)c5)cc4)CC3)c2)c(-c2ccc(Cl)cc2)n1C(C)C: 0.2
C=CC(=O)N1CCN(c2nc(=O)n(-c3c(C)ccnc3C(C)C)c3nc(-c4c(O)cccc4F)c(F)cc23)C(C)C1 (centres undefined) + Cc1c(S(C)(=O)=O)c(-c2cc(F)cc(N3CCN(c4ccc(NS(=O)(=O)c5ccc(NC(CCN6CCC(C(=O)OCCCP(=O)(O)O)CC6)CSc6ccccc6)c(S(=O)(=O)C(F)(F)F)c5)cc4)CC3)c2)c(-c2ccc(Cl)cc2)n1C(C)C: 36

Record viability, T/C for all entries; do not skip any.
1. O=C(c1cc(Cc2n[nH]c(=O)c3ccccc23)ccc1F)N1CCN(C(=O)C2CC2)CC1 + Cc1c(S(C)(=O)=O)c(-c2cc(F)cc(N3CCN(c4ccc(NS(=O)(=O)c5ccc(NC(CCN6CCC(C(=O)OCCCP(=O)(O)O)CC6)CSc6ccccc6)c(S(=O)(=O)C(F)(F)F)c5)cc4)CC3)c2)c(-c2ccc(Cl)cc2)n1C(C)C
2. C#Cc1c(F)ccc2cc(O)cc(-c3ncc4c(N5CC6CCC(C5)N6)nc(OCC56CCCN5CC(F)C6)nc4c3F)c12 (centres undefined) + Cc1c(S(C)(=O)=O)c(-c2cc(F)cc(N3CCN(c4ccc(NS(=O)(=O)c5ccc(NC(CCN6CCC(C(=O)OCCCP(=O)(O)O)CC6)CSc6ccccc6)c(S(=O)(=O)C(F)(F)F)c5)cc4)CC3)c2)c(-c2ccc(Cl)cc2)n1C(C)C

[22.1, 42.6]
